system: Amaranthus retroflexus; assay: Post-emergence herbicidal activity, glasshouse pot test; format: in vivo; design: key: 0 = no damage to plant, 5 = total damage to plant; details: Application post-emergence, rate 1000 g/ha, evaluated after 13 days
Exercise: state measured AMARE herbicidal damage score for each of the molecules provided.
API note: the answer field is a bare number with no unit suffix.

molecule COC1=C(C)C(O)N(c2cc(C(F)(F)F)c(C(=O)N(C)C)cn2)C1=O (centres unmarked) , AMARE herbicidal damage score observed: 5

Noted for CCC(=O)OC1C(C)=C(Cl)C(=O)N1c1cc(C(F)(F)F)c(-c2cccc(C#N)c2)cn1 (centres unmarked) : its AMARE herbicidal damage score reads 4

// AMARE herbicidal damage score value for COC1=C(C)C(O)N(c2ccc(C(=O)NC(C)(C)C#N)cn2)C1=O (centres unmarked) : 5

Consider COC1=C(OC)C(O)N(c2cc(C(F)(F)F)c(C(F)(F)F)cn2)C1=O (centres unmarked) . Its measured AMARE herbicidal damage score is 5

// sample CC1=C(Cl)C(=O)N(c2cc(C(C)(C)C#N)ccn2)C1O (centres unmarked) , its AMARE herbicidal damage score was 5
